Kindly supply the reported Population Apoptotic (%) values for the records listed here.
Tested on: U2OS
procedure.text: Multiplex assay against U2OS
Type: toxicity, cell-based
test.settings: human, 24 h, 10 µM, compound concentration 10 uM, replicate 2
The response must be a number in % with no trailing unit.

Observed Population Apoptotic (%) on U2OS for CCn1cc(-c2ccnc3[nH]c(-c4cccc(CN(C)C)c4)cc23)c(-c2ccc(NC(=O)N(C)C)cc2)n1 , please.
64

Observed Population Apoptotic (%) on U2OS for Cn1nc(C(F)(F)F)cc1-c1cnc(N2CCc3cc(S(=O)(=O)Nc4c(F)cc(Cl)cc4F)cc(N4CCCC4=O)c32)nc1 , please.
50

Observed Population Apoptotic (%) on U2OS for Cc1cn(-c2cc(NC(=O)c3ccc(C)c(Nc4nccc(-c5cccnc5)n4)c3)cc(C(F)(F)F)c2)cn1 , please.
0

Observed Population Apoptotic (%) on U2OS for CCCS(=O)(=O)c1nc(NC2CC2)cc(-c2ccc3c(ccn3C3CC(C)(C)NC(C)(C)C3)c2)n1 , please.
90

Observed Population Apoptotic (%) on U2OS for CCN1CCN(Cc2ccc(Nc3ncc(F)c(-c4cc(F)c5nc(C)n(C(C)C)c5c4)n3)nc2)CC1.CS(=O)(=O)O , please.
97

Observed Population Apoptotic (%) on U2OS for COc1cccc2cc(-c3nc([C@H]4CC[C@H](C(=O)O)CC4)n4ncnc(N)c34)[nH]c12 , please.
0

Observed Population Apoptotic (%) on U2OS for O=C1NC(=O)C(c2cnc3ccccn23)=C1c1cn2c3c(cc(F)cc13)CN(C(=O)N1CCCCC1)CC2 , please.
81

Observed Population Apoptotic (%) on U2OS for Cl.O=C(c1ccc(Nc2nccc(-c3cc4ccccc4s3)n2)cc1)N1CCC(N2CCCC2)CC1 , please.
100
